List of IC50 values.
- tested_system: FAK (Homo sapiens, UniProt Q05397)
- Sequence (Q05397 whole entry): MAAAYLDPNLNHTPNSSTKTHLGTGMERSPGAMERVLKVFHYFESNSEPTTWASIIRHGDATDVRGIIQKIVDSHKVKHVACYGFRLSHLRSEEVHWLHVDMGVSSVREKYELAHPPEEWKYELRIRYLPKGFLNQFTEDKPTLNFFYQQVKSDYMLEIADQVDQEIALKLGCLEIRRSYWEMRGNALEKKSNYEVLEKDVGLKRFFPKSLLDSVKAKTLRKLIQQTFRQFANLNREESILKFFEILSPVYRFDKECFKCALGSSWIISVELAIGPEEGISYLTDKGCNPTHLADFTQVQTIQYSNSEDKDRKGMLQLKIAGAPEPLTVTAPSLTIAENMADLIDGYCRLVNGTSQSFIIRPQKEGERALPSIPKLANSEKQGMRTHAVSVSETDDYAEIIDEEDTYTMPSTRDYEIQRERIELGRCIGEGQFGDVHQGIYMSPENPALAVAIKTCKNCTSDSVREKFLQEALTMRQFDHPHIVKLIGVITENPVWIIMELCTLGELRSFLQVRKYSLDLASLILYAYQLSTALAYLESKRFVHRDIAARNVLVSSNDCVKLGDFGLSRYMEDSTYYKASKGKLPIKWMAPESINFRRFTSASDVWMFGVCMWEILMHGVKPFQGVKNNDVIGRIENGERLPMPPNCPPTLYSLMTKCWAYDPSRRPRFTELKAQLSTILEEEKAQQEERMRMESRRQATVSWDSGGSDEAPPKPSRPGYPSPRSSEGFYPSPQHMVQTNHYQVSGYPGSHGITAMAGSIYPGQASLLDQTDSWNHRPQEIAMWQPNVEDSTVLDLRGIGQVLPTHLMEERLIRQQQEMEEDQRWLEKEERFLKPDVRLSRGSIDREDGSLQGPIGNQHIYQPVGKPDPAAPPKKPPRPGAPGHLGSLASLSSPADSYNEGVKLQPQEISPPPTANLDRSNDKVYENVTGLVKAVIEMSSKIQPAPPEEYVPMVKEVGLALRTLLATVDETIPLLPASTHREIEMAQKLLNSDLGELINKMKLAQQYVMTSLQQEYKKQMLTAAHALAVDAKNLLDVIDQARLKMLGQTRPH
- test_description: biochemical
Structures can show the parent of a compound that is named as a salt.
property_label: IC50

molecule | meas_value
CCOP(=O)(Cc1ccc(Nc2ncc(Br)c(Nc3ccccc3C(=O)NC)n2)cc1)OCC | < 1 µM
CCOP(=O)(Cc1ccc(Nc2ncc(C(F)(F)F)c(Nc3ccc([C@H]4CC[C@@H](C(=O)O)CC4)c4[nH]cc(C)c(=O)c34)n2)c(OC)c1)OCC | < 1 µM
CCOc1cc(CP(=O)(OCC)OCC)ccc1Nc1ncc(C(F)(F)F)c(Nc2ccc([C@H]3CC[C@H](C(=O)O)CC3)c3c2C(=O)N(C)C3)n1 | < 1 µM
CCOP(=O)(Cc1ccc(Nc2ncc(C(F)(F)F)c(Nc3ccc(-c4cnn(C)c4)cc3C(=O)NC)n2)cc1)OCC | < 1 µM
CCOP(=O)(Cc1ccc(Nc2ncc(C(F)(F)F)c(Nc3ccc(-c4cnn([C@H]5CC[C@H](O)CC5)c4)cc3C(=O)NC)n2)cc1)OCC | < 1 µM
CCOP(=O)(Cc1ccc(Nc2ncc(C(F)(F)F)c(Nc3ccc(-c4cnn(CCCO)c4)c4c3C(=O)N(C)C4)n2)c(OC)c1)OCC | < 1 µM
CCOP(=O)(Cc1ccc(Nc2ncc(C(F)(F)F)c(Nc3ccc(F)cc3C(=O)NC)n2)c(OC)c1)OCC | < 1 µM
CCOP(=O)(Cc1ccc(Nc2ncc(C(F)(F)F)c(Nc3ccc(C4=CCNCC4)c4c3C(=O)N(C)C4)n2)cc1)OCC | < 1 µM
CCP(=O)(CC)Cc1ccc(Nc2ncc(C(F)(F)F)c(Nc3ccccc3C(=O)NC)n2)cc1 | < 1 µM
CCOP(=O)(Cc1ccc(Nc2ncc(C(F)(F)F)c(Nc3cccc4c3C(=O)N(O)C4)n2)c(OC)c1)OCC [Example 186, trifluoroacetate] | < 1 µM
CCOP(=O)(Cc1ccc(Nc2ncc(C(F)(F)F)c(Nc3ccc(C4=CCN(C(N)=O)CC4)c4c3C(=O)N(C)C4)n2)c(OC)c1)OCC | < 1 µM
CCOP(=O)(Cc1ccc(Nc2ncc(C(F)(F)F)c(Nc3ccc([C@H]4CC[C@@H](C(=O)O)CC4)c4c3C(=O)N(C)C4)n2)cn1)OCC | > 10 µM
CCOP(=O)(Cc1ccc(Nc2ncc(C(F)(F)F)c(Nc3ccccc3C(=O)N3CCN(C)CC3)n2)cc1)OCC | < 1 µM
CCOP(=O)(Cc1ccc(Nc2ncc(C(F)(F)F)c(Nc3ccccc3C(N)=O)n2)c(OC)c1)OCC | < 1 µM
CN(c1ncccc1CNc1nc(Nc2ccc(CP(C)(C)=O)cc2)ncc1C(F)(F)F)S(C)(=O)=O | < 1 µM
CCOP(=O)(Cc1ccc(Nc2ncc(C(F)(F)F)c(Nc3ccc(N4CCN(C(C)=O)CC4)c4c3C(=O)N(C)C4)n2)c(OC)c1)OCC | < 1 µM
CCOP(=O)(Cc1ccc(Nc2ncc(C(F)(F)F)c(Nc3ccc([C@H]4CC[C@@H](OCC)CC4)c4c3C(=O)N(C)C4)n2)cc1)OCC | < 1 µM
CCOP(=O)(Cc1ccc(Nc2ncc(C(F)(F)F)c(Nc3ccc(OC)c4c3C(=O)N(C)C4)n2)cc1)OCC | < 1 µM
CCOP(=O)(Cc1ccc(Nc2ncc(C(F)(F)F)c(Nc3ccc(-c4nn[nH]n4)c4c3C(=O)N(C)C4)n2)cc1)OCC | < 1 µM
CCOP(=O)(Cc1ccc(Nc2ncc(C(F)(F)F)c(Nc3ccc([C@H]4CC[C@@](C(=O)O)(N(C)C)CC4)c4c3C(=O)N(C)C4)n2)c(OC)c1)OCC | < 1 µM
CN(c1ncccc1CNc1nc(Nc2cccc(CP(C)(C)=O)c2)ncc1C(F)(F)F)S(C)(=O)=O | < 1 µM
COCCOP(=O)(Cc1ccc(Nc2ncc(C(F)(F)F)c(Nc3ccc([C@H]4CC[C@H](O)CC4)c4c3C(=O)N(C)C4)n2)c(OC)c1)OCCOC | < 1 µM
CCOP(=O)(Cc1ccc(Nc2ncc(C(F)(F)F)c(Nc3ccccc3C(=O)N3CCCC3)n2)c(OC)c1)OCC | < 1 µM
CCOP(=O)(Cc1ccc(Nc2ncc(C(F)(F)F)c(Nc3ccc(-c4cnn(C[C@H](O)CO)c4)c4c3C(=O)N(C)C4)n2)c(OC)c1)OCC | < 1 µM
CN(c1ncccc1CNc1nc(Nc2cccc(P(C)(C)=O)c2)ncc1C(F)(F)F)S(C)(=O)=O | < 1 µM
CCOP(=O)(Cc1ccc(Nc2ncc(C(F)(F)F)c(Nc3ccc(N4CCN(CC(=O)OC(C)(C)C)CC4)c4c3C(=O)N(C)C4)n2)cc1)OCC | < 1 µM
